Entries annotated with measured ECL signal
# tested_on: T1, rHuman P-Cadherin/Fc Chimera, CF (human, UniProt P22223 108-654)
# T1 construct: Bought from R&D Systems; not shown: Fc of the bought chimera
# assay: ECL Multispot (MSD) assay; antigen spotted on plate, Fab in solution;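 further: fab bound 1 h at 20 °C, detected by TAG-labelled antibody electrochemiluminescence, signal relative to each well's blank, ratio of 4 or more marks a hit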
Give the figure only, with no unit attached.

[
  {
    "binder": "Fab VH1-46_IGHD6-6*01_IGHJ1*01 S102A/S103P/S104F/H111F (APFF) & L6_IGKJ1*01 S28P (Fab, V domains shown, Fab made in E. coli; the variable domains were cloned into Plasmid A (CH1, His and Flag tags) and Plasmid C (kappa CL); also called APFF / S28P) VH: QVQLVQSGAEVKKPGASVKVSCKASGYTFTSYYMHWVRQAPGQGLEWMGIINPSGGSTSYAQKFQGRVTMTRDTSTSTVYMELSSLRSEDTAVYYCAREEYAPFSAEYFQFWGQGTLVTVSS VL: EIVLTQSPATLSLSPGERATLSCRASQPVSSYLAWYQQKPGQAPRLLIYDASNRATGIPARFSGSGSGTDFTLTISSLEPEDFAVYYCQQRSNWPPWTFGQGTKVEIKR",
    "observed_property": "ECL signal",
    "result_value": 605
  },
  {
    "binder": "Fab VH1-46_IGHD6-6*01_IGHJ1*01 S102A/S103P/S104F/H111F (APFF) & L6_IGKJ1*01 S28L (Fab, V domains shown, Fab made in E. coli; the variable domains were cloned into Plasmid A (CH1, His and Flag tags) and Plasmid C (kappa CL); also called APFF / S28L) VH: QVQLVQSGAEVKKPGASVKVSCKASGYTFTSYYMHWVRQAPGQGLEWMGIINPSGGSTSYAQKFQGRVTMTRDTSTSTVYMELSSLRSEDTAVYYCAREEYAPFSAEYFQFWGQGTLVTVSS VL: EIVLTQSPATLSLSPGERATLSCRASQLVSSYLAWYQQKPGQAPRLLIYDASNRATGIPARFSGSGSGTDFTLTISSLEPEDFAVYYCQQRSNWPPWTFGQGTKVEIKR",
    "observed_property": "ECL signal",
    "result_value": 418
  },
  {
    "binder": "Fab VH1-46_IGHD6-6*01_IGHJ1*01 S102A/S103P/S104F/H111F (APFF) & L6_IGKJ1*01 S28V (Fab, V domains shown, Fab made in E. coli; the variable domains were cloned into Plasmid A (CH1, His and Flag tags) and Plasmid C (kappa CL); also called APFF / S28V) VH: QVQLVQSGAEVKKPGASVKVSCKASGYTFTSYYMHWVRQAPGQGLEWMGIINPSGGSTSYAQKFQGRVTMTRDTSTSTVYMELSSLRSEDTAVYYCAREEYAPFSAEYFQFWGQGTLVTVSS VL: EIVLTQSPATLSLSPGERATLSCRASQVVSSYLAWYQQKPGQAPRLLIYDASNRATGIPARFSGSGSGTDFTLTISSLEPEDFAVYYCQQRSNWPPWTFGQGTKVEIKR",
    "observed_property": "ECL signal",
    "result_value": 344
  }
]

Continue with the next binder.
Query block: Can you look up the measured ECL signal of Fab VH1-46_IGHD6-6*01_IGHJ1*01 S102A/S103P/S104F/H111F (APFF) & L6_IGKJ1*01 S28A (Fab, V domains shown, Fab made in E. coli; the variable domains were cloned into Plasmid A (CH1, His and Flag tags) and Plasmid C (kappa CL); also called APFF / S28A) VH: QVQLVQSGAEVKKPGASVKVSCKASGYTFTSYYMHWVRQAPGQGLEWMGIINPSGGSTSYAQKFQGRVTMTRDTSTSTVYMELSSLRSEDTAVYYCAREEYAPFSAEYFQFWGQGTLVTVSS VL: EIVLTQSPATLSLSPGERATLSCRASQAVSSYLAWYQQKPGQAPRLLIYDASNRATGIPARFSGSGSGTDFTLTISSLEPEDFAVYYCQQRSNWPPWTFGQGTKVEIKR for me?
Result block: 521
